# target_or_test_system: human GPR39 receptor (Homo sapiens, UniProt O43194)
# Construct: PC3 Cells, Expressing the Endogenous Human GPR39 Receptor; endogenous in cells
# Sequence (O43194 1-453): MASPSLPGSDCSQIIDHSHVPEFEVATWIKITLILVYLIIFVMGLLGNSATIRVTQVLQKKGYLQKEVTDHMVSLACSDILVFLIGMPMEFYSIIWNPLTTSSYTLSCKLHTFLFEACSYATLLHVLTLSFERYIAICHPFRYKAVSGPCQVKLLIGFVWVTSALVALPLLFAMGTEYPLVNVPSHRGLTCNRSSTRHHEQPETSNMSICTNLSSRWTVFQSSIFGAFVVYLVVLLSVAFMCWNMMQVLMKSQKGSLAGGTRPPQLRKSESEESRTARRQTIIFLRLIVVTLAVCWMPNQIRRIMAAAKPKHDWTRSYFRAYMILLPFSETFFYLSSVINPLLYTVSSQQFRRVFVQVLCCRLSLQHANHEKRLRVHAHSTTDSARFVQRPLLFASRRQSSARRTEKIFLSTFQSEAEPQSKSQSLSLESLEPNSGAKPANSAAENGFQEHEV
# assay_text: Measurement of intracellular calcium response in PC3 cells (FLIPR), antagonism of the C3 agonist response
# study_conditions: functional pKi (modified Cheng-Prusoff), inhibition of the C3 (TC-G 1008) response at EC90, 30 μM ZnCl2, read-out: fpKi activity
measured_endpoint: Ki

Known results for molecules:
molecule | target_or_test_system | value
O=C(Nc1ccc(C(=O)N2CCS(=O)(=O)CC2)c(N2CCC(C(F)(F)F)C2)c1)C1CC1 (single isomer, unassigned) [Example 183b] | human GPR39 receptor (Homo sapiens, UniProt O43194) | 63.1 to 251 nM
CN1CCN(C(=O)c2ccc(NC(=O)C3CC3)nc2N2CCC(F)(F)C2)C(c2ccccc2)C1 (single isomer, unassigned) [Example 148a] | human GPR39 receptor (Homo sapiens, UniProt O43194) | 63.1 to 251 nM
CN1CCN(C(=O)c2ccc(NC(=O)C3CC3)cc2N2CCCC2)C(c2ccccc2Cl)C1 (single isomer, unassigned) [Example 170a] | human GPR39 receptor (Homo sapiens, UniProt O43194) | ≤ 50.1 nM
Cn1c(Sc2ccccn2)nnc1-c1ccc(NC(=O)C2CC2)cc1N1CCCC1 | human GPR39 receptor (Homo sapiens, UniProt O43194) | 1260 to 6310 nM
CN1CCN(C(=O)c2ccc(NC(=O)C3CC3)cc2N2CCCCCC2)C(CO)C1 (stereo not shown) | human GPR39 receptor (Homo sapiens, UniProt O43194) | 1260 to 6310 nM

Name the reported Ki value associated with the molecule Cc1ccn(-c2cc(NC(=O)C3CC3)ccc2C(=O)N2CCN(C)CC2c2ccccc2)n1 (single isomer, unassigned) [Example 155a] 316 to 1000 nM

Name the reported Ki value associated with the molecule CCOC1CCN(C(=O)c2ccc(NC(=O)C3CC3)cc2N2CCCCCC2)CC1 316 to 1000 nM

Name the reported Ki value associated with the molecule CN1CCN(C(=O)c2ccc(NC(=O)C3CC3)nc2N2CCCC2)C(c2ccccc2)C1 (racemic) [Example 149c] 63.1 to 251 nM

Name the reported Ki value associated with the molecule Cc1ccn(-c2cc(NC(=O)C3CC3)ccc2C(=O)N2CCC(C(F)(F)F)CC2)n1 63.1 to 251 nM

Name the reported Ki value associated with the molecule O=C(Nc1ccc(C(=O)N2CCS(=O)(=O)CC2)c(N2CCCC2)c1)C1CC1 63.1 to 251 nM

Name the reported Ki value associated with the molecule CC1CN(c2cc(NC(=O)C3CC3)ccc2C(=O)N2CCS(=O)(=O)CC2)CC(C)O1 (racemic) 1260 to 6310 nM

Name the reported Ki value associated with the molecule O=C(Nc1ccc(C(=O)N2CCC(F)CC2)c(N2CCCC2)c1)C1CC1 316 to 1000 nM

Name the reported Ki value associated with the molecule CN1CCN(C(=O)c2ccc(NC(=O)C3CC3)cc2N2CCCC2)C(c2cncnc2)C1 (racemic) 316 to 1000 nM
